Numbers sourced from BigSolDB 2.1.

Details: in chloroform, 283.2 K

Smiles record: O=c1c(-c2ccc(O)cc2)coc2cc(O[C@@H]3O[C@H](CO)[C@@H](O)[C@H](O)[C@H]3O)ccc12
solubility (mole fraction): 3.83e-07

====

Settings: in n-butanol, 303.2 K

Smiles record: O=c1c(-c2ccc(O)cc2)coc2cc(O[C@@H]3O[C@H](CO)[C@@H](O)[C@H](O)[C@H]3O)ccc12
solubility (mole fraction): 0.000253

====

Conditions: in acetonitrile, 323.2 K
Reported property: solubility (mole fraction)

Smiles record: O=c1c(-c2ccc(O)cc2)coc2cc(O[C@@H]3O[C@H](CO)[C@@H](O)[C@H](O)[C@H]3O)ccc12
Reported property: solubility (mole fraction)
Observed value: 3.3e-05
